test system: CAG foci in primary DM1 patient myoblasts; experiment: Single-cut screening: CAG foci staining; format: cell-based, human; settings: single sgRNA, vehicle
measured_attribute: % of CAG foci positive nuclei (Vehicle)

[
  {
    "substance": "AATATCCAAACCGCCGAAGCGG (guide RNA; chemistry not fully specified) [SluD62]",
    "% of CAG foci positive nuclei (Vehicle)": "1.59%"
  },
  {
    "substance": "CTCCGAGAGCAGCGCAAGTGAG (guide RNA; chemistry not fully specified) [SluD52]",
    "% of CAG foci positive nuclei (Vehicle)": "1.26%"
  }
]

Give the value of % of CAG foci positive nuclei (Vehicle) reported for the following: GACGCCCTGCTCTGGGGAGCGT (guide RNA; chemistry not fully specified) [SluD33] 4.78%

Give the value of % of CAG foci positive nuclei (Vehicle) reported for the following: GTCGGGGGTGGGGGTCCTAGGT (guide RNA; chemistry not fully specified) [SluD85] 2.51%

Give the value of % of CAG foci positive nuclei (Vehicle) reported for the following: gggcTCGAAGGGTCCTTGTAGC (as printed in the source, key not given here) [SluU64] 1.23%

Give the value of % of CAG foci positive nuclei (Vehicle) reported for the following: GATAGGTGGGGGTGCGTGGAGG (guide RNA; chemistry not fully specified) [SluD21] 1.95%

Give the value of % of CAG foci positive nuclei (Vehicle) reported for the following: AGATGGAGGGCCTTTTATTCGC (guide RNA; chemistry not fully specified) [SluD99] 0.73%

Give the value of % of CAG foci positive nuclei (Vehicle) reported for the following: GCTCGGAGCGGTTGTGAACTGG (listed as DNA, chemistry not fully specified) [SluU21] 0.68%

Give the value of % of CAG foci positive nuclei (Vehicle) reported for the following: gggccgggtccgcggccggcga (GGGCCGGGTCCGCGGCCGGCGA; guide RNA; chemistry not fully specified) [SluU55] 0.99%

Give the value of % of CAG foci positive nuclei (Vehicle) reported for the following: GGGGCGCGGGATCCCCGAAAAA (guide RNA; chemistry not fully specified) [SluD44] 1.49%

Give the value of % of CAG foci positive nuclei (Vehicle) reported for the following: CCCCGTTGGAAGACTGAGTGCC (guide RNA; chemistry not fully specified) [SluU09] 1.48%

Give the value of % of CAG foci positive nuclei (Vehicle) reported for the following: GTGCGTGGAGGATGGAACACGG (guide RNA; chemistry not fully specified) [SluD19] 2.32%

* * *

A collection of substances and their measured % of CUG foci free nuclei (Vehicle)
tested on: CUG foci in primary DM1 patient myoblasts; experiment: Single-cut screening: FISH staining of CUG RNA foci; type: cell-based, human; settings: single sgRNA; primary DM1 patient myoblasts; vehicle
Form entry: value (%) — number only.

[
  {
    "substance": "TGGGCGGAGACCCACGCTCGGA (guide RNA; chemistry not fully specified) [SluU25]",
    "measured": 23.15
  },
  {
    "substance": "GGGCTCCGAGAGCAGCGCAAGT (guide RNA; chemistry not fully specified) [SluD53]",
    "measured": 12.28
  },
  {
    "substance": "GGCCCGCCCCCTAGCggccggg (guide RNA; as printed in the source, key not given here) [SluU38]",
    "measured": 7.24
  },
  {
    "substance": "AATATCCAAACCGCCGAAGCGG (guide RNA; chemistry not fully specified) [SluD62]",
    "measured": 11.48
  },
  {
    "substance": "ccccggccGCTAGGGGGCGGGC (guide RNA; as printed in the source, key not given here) [SluU39]",
    "measured": 10.53
  },
  {
    "substance": "GGGGCGCGGGATCCCCGAAAAA (guide RNA; chemistry not fully specified) [SluD44]",
    "measured": 8.05
  }
]

With those in mind, consider the next substance.
Answer with % of CUG foci free nuclei (Vehicle) of TCTTGTGCATGACGCCCTGCTC (guide RNA; chemistry not fully specified) [SluD31] measured for CUG foci in primary DM1 patient myoblasts. 14.17
